Hello, the source for this data is paper PMC12040169, in case you need it.

- Assay procedure: in vitro
- Run parameters: human, hela cells, % viability

{"columns": ["Molecule", "viability at 28.5 h, 10 µM [%]"],
 "data": [
  ["O=C(CN1CCOCC1)N1CCN(C(=O)c2ccc(C(F)(F)F)cc2)C1 [CBK051555C]", 92.1],
  ["C#CCNC(=O)C1CCCN(c2nc3ccccc3n2C)C1 (stereo not drawn)", 89.6],
  ["COc1ccc(Cl)cc1N1CCN(CCO)CC1", 88.7]
]}

====

- Assay procedure: in vitro
- Run parameters: human, hela cells, % viability
Reported property: viability at 28.5 h, 10 µM (%)

{"columns": ["Compound", "Reported property", "Units", "Measured result"],
 "data": [
  ["C#Cc1cn([C@H]2C[C@@H](O)[C@@H](CO)O2)c(=O)[nH]c1=O [CBK201207]", "viability at 28.5 h, 10 µM", "%", 87.8],
  ["CC(=O)Nc1ccc(NC(=O)[C@H]2CCCC[C@H]2C(=O)O)cc1 [CBK287073]", "viability at 28.5 h, 10 µM", "%", 99.6],
  ["O=C(COc1ccc(Cl)cc1Br)NNC(=O)c1ccccc1O [CBK262943]", "viability at 28.5 h, 10 µM", "%", 97.8],
  ["Cc1cn2c(=O)c(C(=O)Nc3ccccc3C)cnc2s1 [CBK287710]", "viability at 28.5 h, 10 µM", "%", 94.1]
]}
